tested on: HCT-116 colon; test: NCI-60 one-dose screen, 48 h; conditions: 10 µM unless noted
This is part of a sample that, as a whole, favours compounds with a hit. Of some 83,000 tested, about 20% had one in any assay. Calls of active or inactive are those of the source. The calls were made as follows: active = growth percent below 10; inactive = the rest.
Just give me one of these, please: active, inactive

Example entries begin here.
O=C(/C=C/c1ccccc1)c1ccc(O)c(CN2CCN(c3cc4c(cc3F)c(=O)c(C(=O)O)cn4C3CC3)CC2)c1
active
O=C(C(=O)c1ccc2c(c1)OCO2)c1ccc2c(c1)OCO2
inactive
C=CCSSc1ncnc2c1ncn2C1OC(CO)C(O)C1O (configuration not stated)
inactive
COc1ccc(CN2c3ccccc3Sc3ccccc32)c(C(F)(F)F)c1
active
CC(C)(O)c1cn(CCCCN2C(=O)C(=O)c3ccccc32)nn1
inactive
O=C(Cc1ccc(/C=C/C(=O)c2ncc[nH]2)cc1)Nc1ccc(F)cc1
inactive

Next item in the queue.
Lookup: I would be grateful if you could indicate the recorded call for `CCCCCCCCCCCCC[N+](C)(C)Cc1ccccc1` .
Found: active

---

tested on: SK-OV-3 ovarian; test: NCI-60 one-dose screen, 48 h; conditions: 10 µM unless noted
Compounds without any hit were thinned out: in the full panel of roughly 83,000, 20% have a hit. The source made the active and inactive calls. Rule for the calls: active = growth percent below 10; inactive = the rest.
Just give me one of these, please: active, inactive

Example entries begin here.
Clc1ccc2c(NCCCNc3nc(-n4ccnc4)nc4ccccc34)ccnc2c1
inactive
Cn1cc(-c2nonc2-c2cn(C)c3ccc(F)cc23)c2cc(F)ccc21
inactive
COc1cc(/C=C/C(=O)c2cccnc2Nc2ccc(F)cc2)cc(OC)c1OC
inactive
CCCc1cc(=O)n2c(C(=O)Nc3cccc(C(=O)OCC)c3)c(C(=O)Nc3ccc(F)cc3)sc2n1
inactive
CCOc1cc2ncc(C#N)c(Nc3ccc(F)c(Cl)c3)c2cc1NC(=O)CC1CCSS1 (configuration not stated)
active
CN(C)S(=O)(=O)c1ccc(S(=O)(=O)Nc2cccc(Cl)c2N2CCCCC2)cc1
inactive
Cn1ccnc1C(=O)/C=C/c1ccccc1
inactive
Cc1cc(N2CCN(c3ccnc4cc(Cl)ccc34)CC2)nc(N2CCOCC2)n1
inactive

Lookup: I would be grateful if you could indicate the recorded call for `COc1ccc(Nc2c3c4c(cccc4[nH]c2=O)C(=O)c2ccccc2-3)cc1` .
Found: active

Lookup: I would be grateful if you could indicate the recorded call for `CC(=O)c1cc(C(=O)c2ccc3c(c2)Sc2ccccc2N3)n2ccccc12` .
Found: active

Lookup: I would be grateful if you could indicate the recorded call for `COc1cccc(-c2nc(SCC(=O)Nc3ccc(C(=O)/C=C/c4ccc(OC)c(OC)c4)cc3)[nH]c(=O)c2C#N)c1` .
Found: inactive

Lookup: I would be grateful if you could indicate the recorded call for `COc1ccc(C(=O)COc2ccc(/C=C3\COc4ccc(OC)cc4C3=O)cc2)cc1` .
Found: inactive

Lookup: I would be grateful if you could indicate the recorded call for `CC(=O)Oc1ccc(Cl)cc1CN(C(C)=O)C1CCCCC1` .
Found: inactive

Lookup: I would be grateful if you could indicate the recorded call for `COc1ccc(C(=S)N2CCN(c3cccc(Cl)c3)CC2)cc1` .
Found: inactive

Lookup: I would be grateful if you could indicate the recorded call for `COC[C@H](C)n1c(C2CCOCC2)nc2cnc3cc(-c4c(C)noc4C)c(OC)cc3c21` .
Found: active

Lookup: I would be grateful if you could indicate the recorded call for `CC(=O)c1cc2c(N)c(C(=O)Nc3ccccc3)sc2nc1C` .
Found: inactive

Lookup: I would be grateful if you could indicate the recorded call for `CCc1nnc(CNc2ccc(Cl)cc2)o1` .
Found: inactive

Lookup: I would be grateful if you could indicate the recorded call for `Nc1nc2ccc3[nH]ncc3c2c2c1CCCC2` .
Found: inactive

Lookup: I would be grateful if you could indicate the recorded call for `COc1ccc(S(=O)(=O)N2CCCCCC2)cc1NC(=O)c1[nH]c(C)c2c1CCCCC2=O` .
Found: inactive

Lookup: I would be grateful if you could indicate the recorded call for `O=C1/C(=C(/c2ccccc2)N2CCOCC2)Cc2ccccc21` .
Found: inactive

Lookup: I would be grateful if you could indicate the recorded call for `CCNC(=O)Oc1ccc(/C(=C(\C)c2ccc(Cl)cc2)c2ccc(OCCN(CC)CC)cc2)cc1` .
Found: inactive

Lookup: I would be grateful if you could indicate the recorded call for `CC[C@@H]1O[C@H](O[C@@H](c2cnc[nH]2)[C@H](NC(=O)c2nc([C@H](CC(N)=O)NC[C@@H](N)C(N)=O)nc(N)c2C)C(=O)N[C@H](C)[C@H](O)[C@H](C)C(=O)N[C@@H](C(=O)NCCc2nc(-c3nc(C(=O)NCCCCN=C(N)N)cs3)cs2)[C@@H](C)O)[C@H](O[C@@H]2O[C@H](CO)[C@H](O)[C@H](OC(N)=O)[C@@H]2O)[C@H](C)[C@@H]1C` .
Found: inactive
